System: HepG2-ACTB-RAB5A
Experiment: phenotypically active (imaging signature differs from DMSO and reproducible) at any of 0.3-9 uM (binary (1 = active, 0 = inactive)); higher = active
Conditions: treatment time: 24 h
Counter-ions that a name gives are not always drawn.
Hi there, use one of these labels in your reply, thanks! True (active), False (inactive)

Asked: Just curious, what result did C=CC(=O)N1CCC[C@@H](n2nc(-c3cccc(C(=O)Nc4ccc(C(C)C)c(C)c4)c3)c3c(N)ncnc32)C1 get here?
Given back: True

Asked: Now consider C/N=C(\NC#N)NCCSCc1nc[nH]c1C .
Given back: False

Asked: Now consider C[C@H](N[C@@H](CCc1ccccc1)C(=O)O)C(=O)N1CCC[C@H]1C(=O)O .
Given back: False

Asked: Now consider COC(=O)c1ccc(N2CCN(C)CC2)c(NC(=O)c2cccc(OC)c2)c1 .
Given back: False

Asked: Now consider COc1ccc2c(c1)c(CC(=O)O)c(C)n2C(=O)c1ccc(Cl)cc1 .
Given back: False

Asked: Now consider NS(=O)(=O)c1cc(C2(O)NC(=O)c3ccccc32)ccc1Cl (stereo unspecified) .
Given back: False

Asked: Now consider O=C(/C=C/N1C[C@H]2C[C@@H]1CN2c1ccccn1)c1ccccc1O .
Given back: False

Asked: Now consider COc1ccc(-c2ccc3ncc4c(c3c2)n(-c2ccc(N3CCNCC3)c(C(F)(F)F)c2)c(=O)n4C)cn1 .
Given back: True

Asked: Now consider CC(C)Cc1ccc(C(C)C(=O)O)cc1 (stereo unspecified) .
Given back: False

Asked: Now consider CO/N=C/C1=CCCN(C)C1 [Milameline hydrochloride] .
Given back: False

Asked: Now consider CCOc1nc(NC(=O)Cc2cc(OC)ccc2OC)cc(N)c1C#N .
Given back: False

Asked: Now consider CC1(CN2CCC(n3c(=O)[nH]c4ccccc43)CC2)OCc2ccccc2-n2cccc21 (stereo unspecified) .
Given back: False

Asked: Now consider OCCOCCN1CCN(C2=Nc3ccccc3Sc3ccccc32)CC1 [Quetiapine hemifumarate] .
Given back: False

Asked: Now consider O=C1Cc2cc(CCN3CCN(c4nsc5ccccc45)CC3)c(Cl)cc2N1 .
Given back: True

Asked: Now consider COc1cc2c(cc1OCCCN1CCCC1)N=C(N)C21CCC1 .
Given back: False

Asked: Now consider COc1cc(C(=O)N2CCC(N3CCN(C)CC3)CC2)ccc1Nc1ncc2c(n1)N(C)c1ccccc1C(=O)N2C .
Given back: True

Asked: Now consider CCN(CC)CCNc1ccc(CO)c2sc3ccccc3c(=O)c12 .
Given back: True

Asked: Now consider CC(=O)OC(C)C[N+](C)(C)C (stereo unspecified) .
Given back: False

Asked: Now consider Nc1ncnc2c1c(-c1cnc3[nH]ccc3c1)nn2C1CCCC1 .
Given back: True

Asked: Now consider CC(C)c1c(C(=O)Nc2ccccc2)c(-c2ccccc2)c(-c2ccc(F)cc2)n1CC[C@@H](O)C[C@@H](O)CC(=O)O .
Given back: True

Asked: Now consider C[C@@H]1C[C@H]2[C@@H]3CCC4=CC(=O)C=C[C@]4(C)[C@@]3(Cl)[C@@H](O)C[C@]2(C)[C@@]1(OC(=O)c1ccco1)C(=O)CCl [mometasone furoate] .
Given back: False

Asked: Now consider CCCCCCCCCCCCCCCC[n+]1ccn(Cc2ccccc2)c1C .
Given back: True

Asked: Now consider CCCC(CCC)C(=O)O [Valproic acid, sodium salt] .
Given back: False

Asked: Now consider Cc1ccc(NC(=O)CCCCCC(=O)Nc2ccccc2N)cc1 .
Given back: True

Asked: Now consider Cc1ccc([N+](=O)[O-])cc1S(=O)(=O)N(C)/N=C/c1cnc2ccc(Br)cn12 .
Given back: True

Asked: Now consider C/C(=N/NC(=N)N)c1ccc(NC(=O)Nc2ccc(/C(C)=N/NC(=N)N)cc2)cc1 .
Given back: True

Asked: Now consider CCCCCCCCCCNCCSSCc1ccc(Cl)cc1 .
Given back: True

Asked: Now consider CN1CCCC(n2nc(Cc3ccc(Cl)cc3)c3ccccc3c2=O)CC1 (stereo unspecified) .
Given back: True

Asked: Now consider O=C(O/N=C1\c2ccccc2-c2nc3ccccc3nc21)c1ccco1 .
Given back: False

Asked: Now consider O=C1CCC[C@@H]2[C@H]3CCC[N+]4([O-])CCC[C@@H](CN12)[C@@H]34 (stereo partly specified) .
Given back: False

Asked: Now consider COc1ccc2cc(CCC(C)=O)ccc2c1 .
Given back: False

Asked: Now consider CCCc1nc(C(C)(C)O)c(C(=O)OCc2oc(=O)oc2C)n1Cc1ccc(-c2ccccc2-c2nnn[nH]2)cc1 .
Given back: False

Asked: Now consider C[C@@H]1O[C@@H](O[C@H]2[C@H](Oc3cc(O)c4c(c3)O[C@H](c3ccc(O)cc3)CC4=O)O[C@H](CO)[C@@H](O)[C@@H]2O)[C@H](O)[C@H](O)[C@H]1O [Naringin hydrate] .
Given back: False

Asked: Now consider COc1cc2c(cc1OC)CC(=O)N(CCCN(C)C[C@H]1Cc3cc(OC)c(OC)cc31)CC2 .
Given back: False

Asked: Now consider C=C1C(=O)O[C@@H]2[C@H]3O[C@]3(C)CCC=C(C)CC[C@@H]12 [Parthenolide] .
Given back: True

Asked: Now consider CCOC(=O)[C@H](CCc1ccccc1)N[C@@H](C)C(=O)N1[C@H](C(=O)O)C[C@@H]2CCC[C@@H]21 .
Given back: False
